# subject-of-test: T1, human CD38 on cells (human, UniProt P28907 1-300)
# T1 construct: whole, on cells; also called CD38-expressing 300-19 cells; CD38-positive Ramos lymphoma cells
# assay-name: apparent KD, FACS titration on Ramos cells, non-linear regression
test-readout: Kd (nM)
Only the number, expressed in nM, is required.

Input line: Fill in: Kd of 38SB39 murine anti-CD38 monoclonal antibody (antibody, V domains shown, Murine hybridoma antibody; also called hybridoma PTA-7671) VH: NVQLVESGGGLVQPGGSRKLSCAASGFTFSNFGMHWVRQAPEKGLEWVAYIRSGSGTIYYSDTVKGRFTISRDNPKNTLFLQMTSLRSEDTAMYYCARSYYDFGAWFAYWGQGTLVTVSA VL: DIVMTQSQKFMSTSVGDRVSVTCKASQNVGTNVAWYQHKPGQSPKIMIYSASSRYSGVPDRFTGSGSGTLFTLTINNVQSEDLAEYFCQQYNSYPLTFGSGTKLEIKR is ___
Output line: 3.03

Input line: Fill in: Kd of 38SB18 murine anti-CD38 monoclonal antibody (antibody, V domains shown, Murine hybridoma antibody; also called hybridoma PTA-7669) VH: QIQLVQSGPELKKPGETVKISCKASGYTFTNSGMNWVKQAPGKGLKWMGWINTYTGEPTYADDFKGRFAFSLETSASSAYLQISNLKNEDTATYFCARRGFVYWGQGTLVTVSA VL: DIVLTQSPASLAVSLGQRATISCRASESVAIYGNSFLKWFQQKPGQPPKLLIYRASNLESGIPARFSGSGSGTDFTLTINPVEADDVATYYCQQINEDPYTFGGGTKLEIKR is ___
Output line: 0.1

Input line: Fill in: Kd of 38SB31 murine anti-CD38 monoclonal antibody (antibody, V domains shown, Murine hybridoma antibody; also called hybridoma PTA-7668) VH: DVKLVESGGGLVKPGGSLKLSCEASGFTFSSYTLSWVRQTPETRLEWVATISIGGRYTYYPDSVEGRFTISRDNAKNTLYLQMNSLKSEDTAMYYCTRDFNGYSDFWGQGTTLTVSS VL: DTVMTQSHKFISTSVGDRVSITCKASQVVGSAVAWYQQKPGQSPKLLIYWASTRHTGVPDRFTGSGSGTDFTLTISNVQSEDLADYFCQQYNSYPYTFGGGTKLEIKR is ___
Output line: 0.11

// data source = patent US20110262454A1
